# experimental_target: NHERF2 PDZ2 (UniProt Q15599 142-280)
# Sequence (Q15599 142-280): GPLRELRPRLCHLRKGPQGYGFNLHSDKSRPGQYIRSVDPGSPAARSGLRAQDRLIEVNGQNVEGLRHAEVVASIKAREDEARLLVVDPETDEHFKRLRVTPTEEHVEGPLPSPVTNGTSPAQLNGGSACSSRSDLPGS
# run_description: fluorescence polarisation
parameter_measured: Ki
Don't forget the unit after the number, please.

Ki measured on SSRTVQDTRL [_(SSRT)CFTR peptide] = 1700 nM
